tested on: human bladder carcinoma EJ cell line; experiment: Colony formation assay, human bladder carcinoma EJ; assay type: cell-based; conditions: Homo sapiens, EJ, 24 h, Table IV; 24 h treatment; read-out: EJ (IC50)
IC50: recorded values
Give a bare numeral; the unit µg/mL is implied.

Recorded results for 6 compounds are shown here.
INSERT INTO results (smiles_notation, target_entity, recorded_measurement) VALUES
  ('CCN1C(=CC=c2sc(=Cc3sc4c5ccccc5ccc4[n+]3CC)n(CC)c2=O)N(CC(F)(F)C(F)F)c2cc(C(F)(F)F)ccc21', 'human bladder carcinoma EJ cell line', 0.05),
  ('CCn1c(=Cc2sc3c4ccccc4ccc3[n+]2CC)sc(=CC=C2Sc3ccc4ccccc4c3N2C)c1=O', 'human bladder carcinoma EJ cell line', 0.09),
  ('CCN1C(=CC=c2sc(=Cc3sc4c5ccccc5ccc4[n+]3C)n(CC)c2=O)Sc2ccc3ccccc3c21', 'human bladder carcinoma EJ cell line', 0.045),
  ('CCn1c(=Cc2sc3ccc(Cl)cc3[n+]2CC)sc(=CC=C2N(C)c3ccccc3C2(C)C)c1=O', 'human bladder carcinoma EJ cell line', 0.04),
  ('CCN1CCSC1=CC=c1sc(=Cc2sc3ccc(OC)cc3[n+]2CC)n(CC)c1=O', 'human bladder carcinoma EJ cell line', 0.06),
  ('CCN1C(=CC=c2sc(=Cc3sc4ccccc4[n+]3CC)n(CC)c2=O)Sc2ccc3ccccc3c21', 'human bladder carcinoma EJ cell line', 0.03);

Now examine the next entry.
Entry under test: CC[n+]1c(C=c2sc(=CC=C3Sc4ccc5ccccc5c4N3C)c(=O)n2C)sc2c3ccccc3ccc21 . Its IC50 was 0.082
